Listing of recorded FACS fluorescence by entry.
Target: T1, CLDN6 endogenously expressed by human cancer cell lines (ARK2, OVCA429) (human, UniProt P56747 1-220)
T1 construct: Untagged endogenous protein; also called Endogenous CLDN6+
T1 sequence: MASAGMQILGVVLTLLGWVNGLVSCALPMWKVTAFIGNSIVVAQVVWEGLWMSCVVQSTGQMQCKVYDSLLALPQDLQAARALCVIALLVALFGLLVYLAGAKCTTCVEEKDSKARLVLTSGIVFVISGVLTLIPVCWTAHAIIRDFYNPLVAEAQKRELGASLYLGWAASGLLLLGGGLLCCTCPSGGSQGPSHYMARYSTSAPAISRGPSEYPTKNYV
Experiment: FACS, 1.5 µg Ab, ARK2 cells
Procedure: FACS assays were also carried out to determine relative antigen binding strengths of the humanized antibodies (at either 1.5 μg or 0.3 μg) for binding to CLDN6 as expressed by the indicated cancer cell lines. 2nd Ab only was used as a negative control.
quantity: FACS fluorescence

binder: AB11-chim (antibody, V domains shown, 'chim' is the pre-humanized form (parental variable regions); also called pre-humanized (chimeric) form of AB11) VH: DVQLVESGGGLVQPRGSRKLSCAASGFTFSSFGMHWVRQAPEKGLEWVAYISSDSRTIYYADTVKGRFTISRDNPTNTLFLQMTSLRSEDTAMYYCARDYGRTYEAYWGQGTLVTVSA VL: DIVLTQSPASLAVSLGQRATISCRASKSVSTSGYSYIHWYQQKPGQPPKLLIYLASNLESGVPARFSGSGSGTDFTLNIHPVEEEDAATYYCQHSRELPLTFGAGTKLELK
quantity: FACS fluorescence
readout number: 1260

binder: AB4-11 (antibody, V domains shown, Humanized; also called Humanized AB 4-11) VH: QVQLVQSGAEVKKPGASVKMSCKASGYTFTSYTMHWIRQAPGQGLEWIGYINPSSTYTHYIKKFKDRATLTADKSTSTAYMELSSLRSEDTAVYYCSRGELGGFAYWGQGTLVTVSS VL: DVVMTQSPLSLPVTLGQPASISCRSSQSLVHSDGNTYLNWYQQRPGQSPRLLIYKVSNRFSGVPDRFSGSGSGTDFTLKISRVEAEDVGVYYCSQSTHVPYTFGQGTKLEIK
quantity: FACS fluorescence
readout number: 9170

binder: AB1-4 (antibody, V domains shown, also called Humanized AB 1-4) VH: QVQLVQSGAEVKKPGASVKVSCKASGYTFTTYTMHWVRQAPGQGLEWMGFINPSSGYTDYAQKFQGRVTMTADTSTSTVYMELSSLRSEDTAVYYCANGDYYVAYWGQGTLVTVSS VL: DIQLTQSPSSLSASVGDRVTMTCTASSSVSSTYFHWYQQKPGKAPKLLIYSTSNLASGVPSRFSGSGSGTDYTLTISSMQPEDAATYYCHQYHRSPLTFGQGTKLEIK
quantity: FACS fluorescence
readout number: 10000

binder: AB3-3 (antibody, V domains shown, also called Humanized AB 3-3) VH: EVQLLESGGGLVQPGGSMRLSCAASGFTFSNYWMNWVRQAPGKGLEWVAQIRLKSDNYATHYADSVKGRFTISRDDSKNTVYLQMNSLRAEDTGVYYCNDGPPSGCWGQGTLLTVSS VL: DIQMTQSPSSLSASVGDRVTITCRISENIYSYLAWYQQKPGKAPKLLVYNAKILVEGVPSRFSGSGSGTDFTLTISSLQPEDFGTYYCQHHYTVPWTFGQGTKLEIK
quantity: FACS fluorescence
readout number: 54900

binder: AB4-chim (antibody, V domains shown, 'chim' is the pre-humanized form (parental variable regions); also called pre-humanized (chimeric) form of AB4) VH: QVQLQQSGAELARPGASVKMSCKASGYTFTSYTMHWIKQRPGQGQEWIGYINPSSTYTHYIKKFKDKATLTADKSSSTAYMQLRSLTSEDSAVYYCSRGELGGFAYWGQGTLVTVSA VL: DVVMTQTPLSLPVSLGDQASISCRSSQSLVHSDGNTYLNWYLQKPGQSPKLLIYKVSNRFSGVPDRFSGSGSGTDFTLKIRRVEAEDLGVYFCSQSTHVPYTFGGGTKLEIK
quantity: FACS fluorescence
readout number: 38400
